Would you mind telling me the reported chromatographic logP of each entry?
- PROTOCOL NOTES: HPLC log P
- Assay type: physicochemical
- APPLIED CONDITIONS: pH 7.0
One number for each entry.

{"SMILES CODE": "Cc1cc2cc(CN([C@H](CC(C)C)C(N)=O)S(=O)(=O)c3ccc(Cl)cc3)ccc2[nH]1", "chromatographic logP": 4.21}

Endpoint output: chromatographic logP of "CC(C)C[C@H](C(N)=O)N(Cc1ccc2[nH]ccc2c1)S(=O)(=O)c1ccc(Cl)cc1" . Value?
3.81
